# Test: Comparative test of solubility measurement
# Experimental Conditions: methyl ethyl ketone, room temperature

- Compound: "N#CCCCN(CCCC#N)c1ccc([N+](=C2C=CC(=[N+](c3ccc(N(CCCC#N)CCCC#N)cc3)c3ccc(N(CCCC#N)CCCC#N)cc3)C=C2)c2ccc(N(CCCC#N)CCCC#N)cc2)cc1.O=S(=O)([N-]S(=O)(=O)C(F)(F)F)C(F)(F)F.O=S(=O)([N-]S(=O)(=O)C(F)(F)F)C(F)(F)F"
  solubility in MEK / %: 2
- Compound: "CC(C)CCN(CCC(C)C)c1ccc([N+](=C2C=CC(=[N+](c3ccc(N(CCC(C)C)CCC(C)C)cc3)c3ccc(N(CCC(C)C)CCC(C)C)cc3)C=C2)c2ccc(N(CCC(C)C)CCC(C)C)cc2)cc1.O=S(=O)([N-]S(=O)(=O)C(F)(F)F)C(F)(F)F.O=S(=O)([N-]S(=O)(=O)C(F)(F)F)C(F)(F)F"
  solubility in MEK / %: 10
- Compound: "CCCCN(CCCC)c1ccc([N+](=C2C=CC(=[N+](c3ccc(N(CCCC)CCCC)cc3)c3ccc(N(CCCC)CCCC)cc3)C=C2)c2ccc(N(CCCC)CCCC)cc2)cc1.[F][Sb-]([F])([F])([F])([F])[F].[F][Sb-]([F])([F])([F])([F])[F] [Compound No. 153, reference compound]"
  solubility in MEK / %: 4.5

* * *

# Test: maximum absorption wavelength (λmax) in dichloromethane
# Assay type: physicochemical

- Smiles: "CCN(CC)c1ccc([N+](=C2C=CC(=[N+](c3ccc(N(CC)CC)cc3)c3ccc(N(CC)CC)cc3)C=C2)c2ccc(N(CC)CC)cc2)cc1.O=S(=O)([N-]S(=O)(=O)C(F)(F)F)C(F)(F)F.O=S(=O)([N-]S(=O)(=O)C(F)(F)F)C(F)(F)F"
  λmax: "1,084 nm"
- Smiles: "CCCCN(CCCC)c1ccc([N+](=C2C=CC(=[N+](c3ccc(N(CCCC)CCCC)cc3)c3ccc(N(CCCC)CCCC)cc3)C=C2)c2ccc(N(CCCC)CCCC)cc2)cc1"
  λmax: "1,102 nm"
- Smiles: "N#CCCCCN(CCCCC#N)c1ccc([N+](=C2C=CC(=[N+](c3ccc(N(CCCCC#N)CCCCC#N)cc3)c3ccc(N(CCCCC#N)CCCCC#N)cc3)C=C2)c2ccc(N(CCCCC#N)CCCCC#N)cc2)cc1.O=S(=O)([N-]S(=O)(=O)C(F)(F)F)C(F)(F)F.O=S(=O)([N-]S(=O)(=O)C(F)(F)F)C(F)(F)F"
  λmax: "1,086 nm"
- Smiles: "CC(C)CN(CC(C)C)c1ccc([N+](=C2C=CC(=[N+](c3ccc(N(CC(C)C)CC(C)C)cc3)c3ccc(N(CC(C)C)CC(C)C)cc3)C=C2)c2ccc(N(CC(C)C)CC(C)C)cc2)cc1"
  λmax: "1,104 nm"
- Smiles: "CCCCN(CCCC#N)c1ccc([N+](=C2C=CC(=[N+](c3ccc(N(CCCC)CCCC#N)cc3)c3ccc(N(CCCC)CCCC#N)cc3)C=C2)c2ccc(N(CCCC)CCCC#N)cc2)cc1.O=S(=O)([N-]S(=O)(=O)C(F)(F)F)C(F)(F)F.O=S(=O)([N-]S(=O)(=O)C(F)(F)F)C(F)(F)F"
  λmax: "1,090 nm"
- Smiles: "N#CCCCN(CCCC#N)c1ccc([N+](=C2C=CC(=[N+](c3ccc(N(CCCC#N)CCCC#N)cc3)c3ccc(N(CCCC#N)CCCC#N)cc3)C=C2)c2ccc(N(CCCC#N)CCCC#N)cc2)cc1.O=S(=O)([N-]S(=O)(=O)C(F)(F)F)C(F)(F)F.O=S(=O)([N-]S(=O)(=O)C(F)(F)F)C(F)(F)F"
  λmax: "1,064 nm"
- Smiles: "CC(C)CCN(CCC(C)C)c1ccc([N+](=C2C=CC(=[N+](c3ccc(N(CCC(C)C)CCC(C)C)cc3)c3ccc(N(CCC(C)C)CCC(C)C)cc3)C=C2)c2ccc(N(CCC(C)C)CCC(C)C)cc2)cc1.O=S(=O)([N-]S(=O)(=O)C(F)(F)F)C(F)(F)F.O=S(=O)([N-]S(=O)(=O)C(F)(F)F)C(F)(F)F"
  λmax: "1,102 nm"

* * *

# Test: Stability test of heat resistance of near-IR absorption filter
# Assay type: physicochemical
# Experimental Conditions: after minus initial, oven at 80° C.
# Protocol: 1.2 part of each compound obtained in each Example was dissolved in 18.8 part of MEK. 80 part of a resin solution obtained by dissolving 25 part of an acrylic resin (Dianal BR-80, manufactured by Mitsubishi Rayon Co., Ltd.) in 75 part of MEK was mixed with the obtained solution to obtain a solution for coating. […] […] After that, the filters were subjected to color measurement by a spectrophotometer to calculate L*, a*, and b* values and their stability was evaluated based on the change in b* values. […]
Measurement Type: b* value, difference

- Compound: "CCCCN(CCCC)c1ccc([N+](=C2C=CC(=[N+](c3ccc(N(CCCC)CCCC)cc3)c3ccc(N(CCCC)CCCC)cc3)C=C2)c2ccc(N(CCCC)CCCC)cc2)cc1.[F][Sb-]([F])([F])([F])([F])[F].[F][Sb-]([F])([F])([F])([F])[F] [Compound No. 153, reference compound]"
  Measurement Type: "b* value, difference"
  Result Value: 1.9
- Compound: "CCCCN(CCCC)c1ccc([N+](=C2C=CC(=[N+](c3ccc(N(CCCC)CCCC)cc3)c3ccc(N(CCCC)CCCC)cc3)C=C2)c2ccc(N(CCCC)CCCC)cc2)cc1"
  Measurement Type: "b* value, difference"
  Result Value: 1.8
- Compound: "CC(C)CN(CC(C)C)c1ccc([N+](=C2C=CC(=[N+](c3ccc(N(CC(C)C)CC(C)C)cc3)c3ccc(N(CC(C)C)CC(C)C)cc3)C=C2)c2ccc(N(CC(C)C)CC(C)C)cc2)cc1"
  Measurement Type: "b* value, difference"
  Result Value: 1.5
- Compound: "CC(C)CCN(CCC(C)C)c1ccc([N+](=C2C=CC(=[N+](c3ccc(N(CCC(C)C)CCC(C)C)cc3)c3ccc(N(CCC(C)C)CCC(C)C)cc3)C=C2)c2ccc(N(CCC(C)C)CCC(C)C)cc2)cc1.O=S(=O)([N-]S(=O)(=O)C(F)(F)F)C(F)(F)F.O=S(=O)([N-]S(=O)(=O)C(F)(F)F)C(F)(F)F"
  Measurement Type: "b* value, difference"
  Result Value: 1.6

* * *

# Test: Comparative test of solubility measurement
# Experimental Conditions: toluene, room temperature
Measurement Type: solubility in toluene

- Compound: "N#CCCCN(CCCC#N)c1ccc([N+](=C2C=CC(=[N+](c3ccc(N(CCCC#N)CCCC#N)cc3)c3ccc(N(CCCC#N)CCCC#N)cc3)C=C2)c2ccc(N(CCCC#N)CCCC#N)cc2)cc1.[F][Sb-]([F])([F])([F])([F])[F].[F][Sb-]([F])([F])([F])([F])[F] [Compound No. 154, reference compound]"
  Measurement Type: "solubility in toluene"
  Result Value: "insoluble"
- Compound: "CC(C)CCN(CCC(C)C)c1ccc([N+](=C2C=CC(=[N+](c3ccc(N(CCC(C)C)CCC(C)C)cc3)c3ccc(N(CCC(C)C)CCC(C)C)cc3)C=C2)c2ccc(N(CCC(C)C)CCC(C)C)cc2)cc1.O=S(=O)([N-]S(=O)(=O)C(F)(F)F)C(F)(F)F.O=S(=O)([N-]S(=O)(=O)C(F)(F)F)C(F)(F)F"
  Measurement Type: "solubility in toluene"
  Result Value: "0.1%"
- Compound: "CCCCN(CCCC)c1ccc([N+](=C2C=CC(=[N+](c3ccc(N(CCCC)CCCC)cc3)c3ccc(N(CCCC)CCCC)cc3)C=C2)c2ccc(N(CCCC)CCCC)cc2)cc1.[F][Sb-]([F])([F])([F])([F])[F].[F][Sb-]([F])([F])([F])([F])[F] [Compound No. 153, reference compound]"
  Measurement Type: "solubility in toluene"
  Result Value: "insoluble"
- Compound: "N#CCCCN(CCCC#N)c1ccc([N+](=C2C=CC(=[N+](c3ccc(N(CCCC#N)CCCC#N)cc3)c3ccc(N(CCCC#N)CCCC#N)cc3)C=C2)c2ccc(N(CCCC#N)CCCC#N)cc2)cc1.O=S(=O)([N-]S(=O)(=O)C(F)(F)F)C(F)(F)F.O=S(=O)([N-]S(=O)(=O)C(F)(F)F)C(F)(F)F"
  Measurement Type: "solubility in toluene"
  Result Value: "insoluble"

* * *

# Test: Stability test of moisture-and-heat resistance of near-IR absorption filter
# Assay type: physicochemical
# Experimental Conditions: 14-day after minus initial, 60° C. and 95% RH
Measurement Type: b* value, difference

- Compound: "CCCCN(CCCC)c1ccc([N+](=C2C=CC(=[N+](c3ccc(N(CCCC)CCCC)cc3)c3ccc(N(CCCC)CCCC)cc3)C=C2)c2ccc(N(CCCC)CCCC)cc2)cc1.F[B-](F)(F)F.F[B-](F)(F)F [Compound No. 156, reference compound]"
  Result Value: 10.8
- Compound: "N#CCCCCN(CCCCC#N)c1ccc([N+](=C2C=CC(=[N+](c3ccc(N(CCCCC#N)CCCCC#N)cc3)c3ccc(N(CCCCC#N)CCCCC#N)cc3)C=C2)c2ccc(N(CCCCC#N)CCCCC#N)cc2)cc1.O=S(=O)([N-]S(=O)(=O)C(F)(F)F)C(F)(F)F.O=S(=O)([N-]S(=O)(=O)C(F)(F)F)C(F)(F)F"
  Result Value: 1.9
